Data credit: ChEMBL document CHEMBL1152204

TARGET UNDER TEST: Adenosine receptor A2a (Homo sapiens)
ASSAY COMMENT: Displacement of [3H]ZM241385 from human adenosine A2A receptor expressed in CHO cells at 1 uM by scintillation counting
Type: cell-based
Hi, to clarify the labels: 1 (yes) covers inhibition from 3% upward, 0 (no) covers anything below 3%.

INSERT INTO measurements (smiles_representation, classification) VALUES
  ('O=C(Nc1nc2ccccc2c2cn(-c3ccccc3)nc12)c1ccco1', '1 (yes)'),
  ('O=C(Nc1nc2ccccc2c2cn(-c3ccccc3)nc12)c1ccncc1', '0 (no)'),
  ('Nc1nc2ccccc2c2cn(-c3cccc(C(F)(F)F)c3)nc12', '1 (yes)'),
  ('O=C(Nc1nc2ccccc2c2cn(-c3ccccc3)nc12)c1ccoc1', '0 (no)'),
  ('O=C(Nc1nc2ccccc2c2cn(-c3ccccc3)nc12)c1ncccn1', '0 (no)'),
  ('O=C(Nc1nc2ccccc2c2cn(-c3ccc(Cl)cc3)nc12)c1ccco1', '0 (no)');

Record O=C(c1ccc(C(F)(F)F)cc1)N(C(=O)c1ccc(C(F)(F)F)cc1)c1nc2ccccc2c2cn(-c3ccccc3)nc12 ; criterion: inhibition no lower than 3%. Met?
0 (no)

Record Cc1ccc(C(=O)Nc2nc3ccccc3c3cn(-c4ccccc4)nc23)cc1 ; criterion: inhibition no lower than 3%. Met?
0 (no)

Record O=C(Nc1nc2ccccc2c2cn(-c3ccccc3)nc12)c1ccccc1 ; criterion: inhibition no lower than 3%. Met?
0 (no)

Record O=C(Nc1nc2ccccc2c2cn(-c3ccccc3)nc12)c1ccncn1 ; criterion: inhibition no lower than 3%. Met?
1 (yes)

Record O=C(Nc1nc2ccccc2c2cn(-c3ccc(C(F)(F)F)cc3)nc12)c1ccccc1 ; criterion: inhibition no lower than 3%. Met?
0 (no)

Record O=C(Nc1nc2ccccc2c2cn(-c3ccccc3)nc12)c1cccnc1 ; criterion: inhibition no lower than 3%. Met?
0 (no)

###

TARGET UNDER TEST: Adenosine receptor A2b (Homo sapiens)
ASSAY COMMENT: Antagonist activity at human adenosine A2B receptor expressed in CHO cells assessed as inhibition of NECA-induced cAMP accumulation at 1 uM
Assay type: functional, cell-based
ENDPOINT LABEL: inhibition
# output: number + unit

INSERT INTO assay_data (smiles_representation, measured_value) VALUES
  ('O=C(Nc1nc2ccccc2c2cn(-c3ccccc3)nc12)c1ccncn1', '3%');

Supply inhibition value. Item: O=C(Nc1nc2ccccc2c2cn(-c3ccccc3)nc12)c1cccc(C(F)(F)F)c1
2%

Supply inhibition value. Item: O=C(Nc1nc2ccccc2c2cn(-c3ccccc3)nc12)c1ccsc1
2%

Supply inhibition value. Item: Nc1nc2ccccc2c2cn(-c3cccc(C(F)(F)F)c3)nc12
4%

###

TARGET UNDER TEST: Adenosine receptor A3 (Homo sapiens, UniProt P0DMS8)
Sequence (P0DMS8 whole entry): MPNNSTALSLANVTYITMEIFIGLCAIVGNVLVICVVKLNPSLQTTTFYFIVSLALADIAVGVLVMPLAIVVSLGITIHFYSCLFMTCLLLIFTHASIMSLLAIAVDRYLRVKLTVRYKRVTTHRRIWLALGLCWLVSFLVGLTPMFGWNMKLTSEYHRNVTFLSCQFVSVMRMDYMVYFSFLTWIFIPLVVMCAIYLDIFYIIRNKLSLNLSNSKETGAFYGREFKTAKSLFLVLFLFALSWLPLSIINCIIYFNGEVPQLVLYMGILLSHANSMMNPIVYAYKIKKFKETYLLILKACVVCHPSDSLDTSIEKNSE
ASSAY COMMENT: Antagonist activity at human adenosine A3 receptor expressed in CHO cells assessed as inhibition of CI-IB-MECA-mediated inhibition of cAMP accumulation by competition protein binding assay
ENDPOINT LABEL: IC50 (nM)
Value expressed in nM; do not type the unit.

Some entries whose results are on file:
INSERT INTO assay_data (smiles_representation, target_under_test, u, measured_value) VALUES
  ('Cc1ccc(C(=O)Nc2nc3ccccc3c3cn(-c4ccccc4)nc23)o1', 'Adenosine receptor A3 (Homo sapiens, UniProt P0DMS8)', 'nM', 49),
  ('O=C(Nc1nc2ccccc2c2cn(-c3ccc(Cl)cc3)nc12)c1ccncc1', 'Adenosine receptor A3 (Homo sapiens, UniProt P0DMS8)', 'nM', 145),
  ('O=C(Nc1nc2ccccc2c2cn(-c3ccccc3)nc12)c1cccnc1', 'Adenosine receptor A3 (Homo sapiens, UniProt P0DMS8)', 'nM', 76);

Kindly review the next compound as well.
Supply IC50 value. Item: Cc1ccc(C(=O)Nc2nc3ccccc3c3cn(-c4ccccc4)nc23)cc1
54

###

TARGET UNDER TEST: Adenosine receptor A2a (Homo sapiens)
ASSAY COMMENT: Displacement of [3H]ZM241385 from human adenosine A2A receptor expressed in CHO cells at 1 uM by scintillation counting
Type: cell-based
Readings of inhibition for the listed compounds
Value expressed in %; do not type the unit.

INSERT INTO measurements (smiles_representation, target_under_test, endpoint_label, measured_value) VALUES
  ('O=C(Nc1nc2ccccc2c2cn(-c3ccccc3)nc12)c1cccc(C(F)(F)F)c1', 'Adenosine receptor A2a (Homo sapiens)', 'inhibition', 1),
  ('Nc1nc2ccccc2c2cn(-c3ccc(C(F)(F)F)cc3)nc12', 'Adenosine receptor A2a (Homo sapiens)', 'inhibition', 1),
  ('O=C(Nc1nc2ccccc2c2cn(-c3ccc(Cl)cc3)nc12)c1ccncc1', 'Adenosine receptor A2a (Homo sapiens)', 'inhibition', 2),
  ('Cc1ccc(C(=O)Nc2nc3ccccc3c3cn(-c4ccccc4)nc23)o1', 'Adenosine receptor A2a (Homo sapiens)', 'inhibition', 10),
  ('O=C(Nc1nc2ccccc2c2cn(-c3ccccc3)nc12)c1ccc(C(F)(F)F)cc1', 'Adenosine receptor A2a (Homo sapiens)', 'inhibition', 3),
  ('O=C(c1ccccc1)N(C(=O)c1ccccc1)c1nc2ccccc2c2cn(-c3ccccc3)nc12', 'Adenosine receptor A2a (Homo sapiens)', 'inhibition', 0),
  ('O=C(Nc1nc2ccccc2c2cn(-c3ccccc3)nc12)c1cccs1', 'Adenosine receptor A2a (Homo sapiens)', 'inhibition', 1),
  ('O=C(Nc1nc2ccccc2c2cn(-c3ccccc3)nc12)c1ccsc1', 'Adenosine receptor A2a (Homo sapiens)', 'inhibition', 2),
  ('O=c1[nH]c2ccccc2c2cn(-c3cccc(C(F)(F)F)c3)nc12', 'Adenosine receptor A2a (Homo sapiens)', 'inhibition', 5);

Kindly review the next compound as well.
Supply inhibition value. Item: Cc1ccc(-n2cc3c(n2)c(NC(=O)c2ccccc2)nc2ccccc23)cc1
26

###

Readings of inhibition for the listed molecules
TARGET UNDER TEST: Adenosine receptor A1 (Homo sapiens) (UniProt P30542)
Sequence (whole entry): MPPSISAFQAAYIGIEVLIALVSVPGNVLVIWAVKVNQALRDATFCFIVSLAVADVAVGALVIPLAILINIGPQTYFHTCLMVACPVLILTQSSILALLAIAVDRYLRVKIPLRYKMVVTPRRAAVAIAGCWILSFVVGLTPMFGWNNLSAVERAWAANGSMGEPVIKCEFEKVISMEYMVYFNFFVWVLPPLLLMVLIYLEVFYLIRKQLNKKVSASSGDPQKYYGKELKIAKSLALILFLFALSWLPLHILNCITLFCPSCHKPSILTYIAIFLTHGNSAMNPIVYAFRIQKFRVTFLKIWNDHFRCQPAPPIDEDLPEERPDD
ASSAY COMMENT: Displacement of [3H]DPCPX from human adenosine A1 receptor expressed in CHO cells at 1 uM by scintillation counting
Assay type: cell-based

Supply inhibition value. Item: O=C(c1cccc(C(F)(F)F)c1)N(C(=O)c1cccc(C(F)(F)F)c1)c1nc2ccccc2c2cn(-c3ccccc3)nc12
4%

Supply inhibition value. Item: O=C(Nc1nc2ccccc2c2cn(-c3ccc(Cl)cc3)nc12)c1ccncc1
4%

Supply inhibition value. Item: O=C(Nc1nc2ccccc2c2cn(-c3ccccc3)nc12)c1ccncn1
9%

###

Readings of inhibition for the listed molecules
TARGET UNDER TEST: Adenosine receptor A2a (Homo sapiens, UniProt P29274)
Sequence (P29274 whole entry): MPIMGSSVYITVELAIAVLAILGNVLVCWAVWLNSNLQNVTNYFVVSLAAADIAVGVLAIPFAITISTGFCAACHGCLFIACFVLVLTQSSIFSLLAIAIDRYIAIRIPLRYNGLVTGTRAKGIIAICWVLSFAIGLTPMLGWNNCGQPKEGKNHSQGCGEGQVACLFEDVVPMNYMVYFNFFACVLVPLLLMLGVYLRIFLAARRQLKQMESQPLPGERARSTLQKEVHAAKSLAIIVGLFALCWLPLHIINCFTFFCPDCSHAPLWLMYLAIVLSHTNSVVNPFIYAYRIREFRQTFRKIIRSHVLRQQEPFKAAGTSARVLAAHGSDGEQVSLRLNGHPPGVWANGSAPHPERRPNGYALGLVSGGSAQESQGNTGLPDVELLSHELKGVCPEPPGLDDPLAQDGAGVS
ASSAY COMMENT: Displacement of [3H]ZM241385 from human adenosine A2A receptor expressed in CHO cells at 1 uM by scintillation counting
Assay type: cell-based
Value expressed in %; do not type the unit.

INSERT INTO assay_data (smiles_representation, target_under_test, endpoint_label, u, measured_value) VALUES
  ('O=C(Nc1nc2ccccc2c2cn(-c3ccccc3)nc12)c1cscn1', 'Adenosine receptor A2a (Homo sapiens, UniProt P29274)', 'inhibition', '%', 1),
  ('O=C(Nc1nc2ccccc2c2cn(-c3ccccc3)nc12)c1cnccn1', 'Adenosine receptor A2a (Homo sapiens, UniProt P29274)', 'inhibition', '%', 6),
  ('Cc1cccc(C(=O)Nc2nc3ccccc3c3cn(-c4ccccc4)nc23)c1', 'Adenosine receptor A2a (Homo sapiens, UniProt P29274)', 'inhibition', '%', 1);

Supply inhibition value. Item: O=c1[nH]c2ccccc2c2cn(-c3ccc(C(F)(F)F)cc3)nc12
10

Supply inhibition value. Item: O=C(Nc1nc2ccccc2c2cn(-c3ccccc3)nc12)c1ccccn1
9

Supply inhibition value. Item: O=C(Nc1nc2ccccc2c2cn(-c3cccc(C(F)(F)F)c3)nc12)c1ccccc1
1

Supply inhibition value. Item: O=C(c1cccc(C(F)(F)F)c1)N(C(=O)c1cccc(C(F)(F)F)c1)c1nc2ccccc2c2cn(-c3ccccc3)nc12
3

###

Readings of inhibition for the listed compounds
TARGET UNDER TEST: Adenosine receptor A2b (Homo sapiens)
ASSAY COMMENT: Antagonist activity at human adenosine A2B receptor expressed in CHO cells assessed as inhibition of NECA-induced cAMP accumulation at 1 uM
Type: functional, cell-based
# output: number + unit

Some entries whose results are on file:
INSERT INTO assay_data (smiles_representation, target_under_test, endpoint_label, measured_value) VALUES
  ('Cc1cccc(C(=O)Nc2nc3ccccc3c3cn(-c4ccccc4)nc23)c1', 'Adenosine receptor A2b (Homo sapiens)', 'inhibition', '35%'),
  ('O=C(Nc1nc2ccccc2c2cn(-c3ccccc3)nc12)c1cccnc1', 'Adenosine receptor A2b (Homo sapiens)', 'inhibition', '1%'),
  ('O=C(Nc1nc2ccccc2c2cn(-c3ccccc3)nc12)c1ccc(C(F)(F)F)cc1', 'Adenosine receptor A2b (Homo sapiens)', 'inhibition', '4%'),
  ('O=C(Nc1nc2ccccc2c2cn(-c3ccccc3)nc12)c1cnccn1', 'Adenosine receptor A2b (Homo sapiens)', 'inhibition', '2%'),
  ('O=C(c1cccc(C(F)(F)F)c1)N(C(=O)c1cccc(C(F)(F)F)c1)c1nc2ccccc2c2cn(-c3ccccc3)nc12', 'Adenosine receptor A2b (Homo sapiens)', 'inhibition', '6%');

Supply inhibition value. Item: O=C(Nc1nc2ccccc2c2cn(-c3cccc(C(F)(F)F)c3)nc12)c1ccccc1
3%

Supply inhibition value. Item: O=C(Nc1nc2ccccc2c2cn(-c3ccccc3)nc12)c1ncccn1
1%

Supply inhibition value. Item: O=C(Nc1nc2ccccc2c2cn(-c3ccccc3)nc12)c1cscn1
2%

Supply inhibition value. Item: O=c1[nH]c2ccccc2c2cn(-c3ccc(C(F)(F)F)cc3)nc12
5%

Supply inhibition value. Item: Cc1ccc(C(=O)Nc2nc3ccccc3c3cn(-c4ccccc4)nc23)o1
5%

Supply inhibition value. Item: O=C(Nc1nc2ccccc2c2cn(-c3ccccc3)nc12)c1ccoc1
5%

Supply inhibition value. Item: O=C(Nc1nc2ccccc2c2cn(-c3ccc(Cl)cc3)nc12)c1ccco1
2%

Supply inhibition value. Item: O=C(Nc1nc2ccccc2c2cn(-c3ccccc3)nc12)c1cccs1
6%

Supply inhibition value. Item: O=C(Nc1nc2ccccc2c2cn(-c3ccc(Cl)cc3)nc12)c1ccncc1
3%

Supply inhibition value. Item: Cc1ccc(C(=O)Nc2nc3ccccc3c3cn(-c4ccccc4)nc23)cc1
38%

Supply inhibition value. Item: O=C(Nc1nc2ccccc2c2cn(-c3ccc(C(F)(F)F)cc3)nc12)c1ccccc1
3%

Supply inhibition value. Item: O=C(Nc1nc2ccccc2c2cn(-c3ccccc3)nc12)c1ccco1
3%
